# maps each entry to its IC50 (nM), cytotoxicity on COLO205 cells (CellTiterGlo)
- target-of-assay: T1, human EpCAM (human, UniProt P16422 24-314)
- T1 sequence (looked up): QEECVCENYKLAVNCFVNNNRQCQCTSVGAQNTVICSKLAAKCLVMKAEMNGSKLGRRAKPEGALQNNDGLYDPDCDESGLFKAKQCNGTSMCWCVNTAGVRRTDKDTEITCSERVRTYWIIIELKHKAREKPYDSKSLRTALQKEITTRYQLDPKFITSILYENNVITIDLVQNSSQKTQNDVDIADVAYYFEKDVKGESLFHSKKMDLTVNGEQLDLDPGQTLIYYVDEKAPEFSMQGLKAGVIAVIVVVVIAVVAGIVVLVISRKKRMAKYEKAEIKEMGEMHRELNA
- test: cell-based or functional assay
Express it in nM; write the number only.

Record excerpt, results attached:
binder	measured-number
ISOP130R5CP6_A06srt vcMMAF conjugate (designed binder, vcMMAF conjugated via the sortase reaction at the C-terminal sortase tag (Gly3-vcMMAF)) MLPAPKNLVVSRVTEDSARLSWKHYRPGARFDSFLIQYQESEKVGEAIVLTVPGSERSYDLTGLKPGTEYTVSIYGVVTALPSYYSSNPLSAIFTTGGHHHHHHGGLPETGGH	1.6
ISOP130R5CP6_A06_Y25A vcMMAF conjugate (designed binder, vcMMAF conjugated via the sortase reaction at the C-terminal sortase tag) MLPAPKNLVVSRVTEDSARLSWKHARPGARFDSFLIQYQESEKVGEAIVLTVPGSERSYDLTGLKPGTEYTVSIYGVVTALPSYYSSNPLSAIFTTGGHHHHHHGGLPETGGH	127
ISOP130R5CP6_A06_L81A vcMMAF conjugate (designed binder, vcMMAF conjugated via the sortase reaction at the C-terminal sortase tag) MLPAPKNLVVSRVTEDSARLSWKHYRPGARFDSFLIQYQESEKVGEAIVLTVPGSERSYDLTGLKPGTEYTVSIYGVVTAAPSYYSSNPLSAIFTTGGHHHHHHGGLPETGGH	76

Next:
Problem: Value lookup for IC50 (nM), cytotoxicity on COLO205 cells (CellTiterGlo); key = ISOP130R5CP6_A06_T79A vcMMAF conjugate (designed binder, vcMMAF conjugated via the sortase reaction at the C-terminal sortase tag) MLPAPKNLVVSRVTEDSARLSWKHYRPGARFDSFLIQYQESEKVGEAIVLTVPGSERSYDLTGLKPGTEYTVSIYGVVAALPSYYSSNPLSAIFTTGGHHHHHHGGLPETGGH
Solution: 0.5
